Hey, just so you know, these numbers are from patent US20240325529A1.

- study_system: T1, human CAPRIN-1 protein on cell membrane surfaces of human cancer cells (human, UniProt Q14444 2-709)
- T1 construct: whole, on cells; Endogenous protein on cancer cells, stained without permeation of the cell membrane
- T1 sequence (looked up): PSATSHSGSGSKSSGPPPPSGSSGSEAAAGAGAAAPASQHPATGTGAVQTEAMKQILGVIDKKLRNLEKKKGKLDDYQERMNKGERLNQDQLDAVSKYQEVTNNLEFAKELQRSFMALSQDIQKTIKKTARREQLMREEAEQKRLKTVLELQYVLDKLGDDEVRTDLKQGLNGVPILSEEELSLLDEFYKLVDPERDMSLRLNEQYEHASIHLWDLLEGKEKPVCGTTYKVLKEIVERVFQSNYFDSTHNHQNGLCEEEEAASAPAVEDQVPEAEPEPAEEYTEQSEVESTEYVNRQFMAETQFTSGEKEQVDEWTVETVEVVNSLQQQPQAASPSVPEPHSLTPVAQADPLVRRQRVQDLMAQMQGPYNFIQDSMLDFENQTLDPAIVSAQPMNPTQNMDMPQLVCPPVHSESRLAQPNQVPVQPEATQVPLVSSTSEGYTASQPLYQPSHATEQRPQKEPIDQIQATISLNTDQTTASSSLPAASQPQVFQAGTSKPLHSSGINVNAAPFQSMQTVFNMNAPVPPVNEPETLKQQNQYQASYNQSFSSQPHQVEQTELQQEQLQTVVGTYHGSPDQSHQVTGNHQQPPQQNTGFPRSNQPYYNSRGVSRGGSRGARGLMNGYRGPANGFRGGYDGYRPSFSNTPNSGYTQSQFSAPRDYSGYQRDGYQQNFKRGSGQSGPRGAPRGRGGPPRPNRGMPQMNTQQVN
- measurement_description: flow cytometry on cancer cells expressing CAPRIN-1
recorded_endpoint: binding result

[[record]]
binder = "anti-CAPRIN-1 antibody (c) (antibody, V domains shown) VH: AVTLDESGGGLQTPGGGLSLVCKASGFTFSSFDMGWVRQAPGKGLEFVAQINDAGSRTWYATAVKGRATISRDNGQTTVRLQLNNLRAEDTGTYYCTRGSGYVGAGAIDAWGHGTEVIVS VL: AALTQPSSVSANPGETVKITCSGGSGYYGWYQQQKSPGSAPVTVIYQNDKRPSDIPSRFSGSGSGSTNTLTITGVQAEDEAVYFCGRYDSTDSGIFGAGTTLTVL"
result = "binds"

[[record]]
binder = "anti-CAPRIN-1 antibody (aj) (antibody, V domains shown) VH: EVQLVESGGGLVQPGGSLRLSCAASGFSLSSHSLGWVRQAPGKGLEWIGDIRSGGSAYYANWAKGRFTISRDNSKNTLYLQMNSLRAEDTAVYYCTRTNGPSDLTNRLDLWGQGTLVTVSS VL: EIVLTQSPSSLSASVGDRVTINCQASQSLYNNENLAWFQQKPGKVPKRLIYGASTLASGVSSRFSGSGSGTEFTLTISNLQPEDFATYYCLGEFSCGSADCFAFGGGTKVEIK"
result = "binds"

